Protocol text: cAMP Responsive Elements (CRE) small molecule antagonists, cell-based qHTS assay (AID 1963591); also: % is scaled to controls: 0 for no effect and ±100 for the full control effect
Measurement conditions: CRE-bla HEK293T, beta-lactamase FRET ratio; series mostly up to 92.4 µM
Results filed as inconclusive are left out. The source made the active and inactive calls. Calls follow the shape of the dose curve; as a rule, active = well fitted inhibition curve with a large enough effect in the signal ratio in the repeat runs (not every such curve was filed as active); inconclusive = weak or mixed curves, or effect the other way; inactive = flat fitted curve, though single readings scatter; the % refers to the signal ratio.
Test readout: outcome

These solved cases illustrate the format of a correct answer.
CC1(C)S[C@@H]2[C@H](NC(=O)[C@H](N)c3ccccc3)C(=O)N2[C@H]1C(=O)O
inactive
CS(=O)(=O)c1ccc([C@@H](O)[C@@H](CO)NC(=O)C(Cl)Cl)cc1
inactive
O=S(=O)(O)c1ccc2nc(-c3ccccc3)[nH]c2c1
inactive
CC1=CC(C)(C)Nc2ccccc21
inactive
Cc1ncc(CO)c(CO)c1O
inactive
CN(C)CCCN
inactive

Okay, next one:
Would you mind telling me what outcome value was observed for Cc1ccc(S(=O)(=O)NCl)cc1 ? inactive

----------
Protocol text: cAMP Responsive Elements (CRE) small molecule antagonists, cell-based qHTS assay (AID 1963591); also: % is scaled to controls: 0 for no effect and ±100 for the full control effect
Measurement conditions: CRE-bla HEK293T, beta-lactamase FRET ratio; series mostly up to 92.4 µM
Inconclusive results are not listed. Calls of active or inactive are those of the source. Calls come from the whole dose curve; as a rule, active = well fitted inhibition curve with a large enough effect in the signal ratio in the repeat runs (not every such curve was filed as active); inconclusive = weak or mixed curves, or effect the other way; inactive = flat fitted curve, though single readings scatter; the % refers to the signal ratio.
Test readout: outcome

These solved cases illustrate the format of a correct answer.
OCCOCCN1CCN(C(c2ccccc2)c2ccc(Cl)cc2)CC1 (stereo not given)
inactive
C=C(C)C(N)=O
inactive
Cc1cc(=O)n(-c2ccccc2)n1C
inactive
NC(=O)NO
inactive
CC1Cc2ccccc2N1NC(=O)c1ccc(Cl)c(S(N)(=O)=O)c1 (stereo not given)
inactive
Nc1ccc(O)c(C(=O)O)c1
inactive

Would you mind telling me what outcome value was observed for O=S(=O)(O)c1ccc2cc(O)ccc2c1 ? inactive

Would you mind telling me what outcome value was observed for C=CC(C)CCCC(C)(C)O (stereo not given) ? inactive

Would you mind telling me what outcome value was observed for CCCC(CCC)C(=O)O ? inactive

Would you mind telling me what outcome value was observed for CCCOC(=O)c1ccccc1 ? inactive

Would you mind telling me what outcome value was observed for O=C(O)c1ccc2c(c1)C(=O)OC2=O ? inactive

Would you mind telling me what outcome value was observed for COc1c(Cl)c(Cl)c(Cl)c(Cl)c1Cl ? inactive

Would you mind telling me what outcome value was observed for CCOC(=O)NNc1nncc2ccccc12 ? inactive

Would you mind telling me what outcome value was observed for CC(=O)Nc1ccc(C(=O)O)cc1 ? inactive

Would you mind telling me what outcome value was observed for CCCCNC(=O)NS(=O)(=O)c1ccc(N)cc1 ? inactive

----------
Target of assay: Beta-2 adrenergic receptor (Homo sapiens) (UniProt P07550)
Sequence (P07550 whole entry, looked up): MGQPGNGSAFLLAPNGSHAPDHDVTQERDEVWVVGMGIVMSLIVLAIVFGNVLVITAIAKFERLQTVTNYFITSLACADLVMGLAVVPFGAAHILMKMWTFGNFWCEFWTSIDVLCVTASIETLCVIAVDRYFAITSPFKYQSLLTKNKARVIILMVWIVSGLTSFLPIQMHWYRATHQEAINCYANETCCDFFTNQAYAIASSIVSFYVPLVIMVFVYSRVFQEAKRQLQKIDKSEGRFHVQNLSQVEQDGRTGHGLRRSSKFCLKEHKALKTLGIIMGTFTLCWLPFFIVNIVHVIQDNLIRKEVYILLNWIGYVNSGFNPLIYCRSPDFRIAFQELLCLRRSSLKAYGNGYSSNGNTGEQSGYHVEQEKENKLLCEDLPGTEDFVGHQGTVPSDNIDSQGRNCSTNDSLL
Protocol text: Adrenergic beta2 receptor (ADRB2) small molecule antagonists, cell-based qHTS assay (AID 1963592); also: % is scaled to controls: 0 for no effect and ±100 for the full control effect; nearly all actives have a fitted effect of over 50% in size
Measurement conditions: CHO-ADRB2 cells, isoproterenol-stimulated cAMP HTRF ratio, 0.5 h; series mostly up to 92.4 µM
Results filed as inconclusive are left out. Calls of active or inactive are those of the source. Calls come from the whole dose curve.
Test readout: outcome

These solved cases illustrate the format of a correct answer.
CN(C)CCOC(=O)COc1ccc(Cl)cc1
inactive
CCCCCCCCCCCCc1ccccc1O
inactive
CC(C)=CCC/C(C)=C/CO
inactive
CC1=CC(=O)CC(C)(C)C1
inactive
CC(=O)CC/C=C(\C)CCC=C(C)C
inactive

Would you mind telling me what outcome value was observed for NC(=O)NC(N)=O ? inactive

Would you mind telling me what outcome value was observed for CCOC(=O)C1OC1c1ccccc1 (stereo not given) ? inactive

----------
Protocol text: G protein-coupled receptor (GPCR) small molecule agonists, calcium flux assay: HEK293 wild type cell line counter screen (AID 1920065); also: % is scaled to controls: 0 for no effect and ±100 for the full control effect
Measurement conditions: HEK293 WT calcium flux, fluorescence, agonist mode; series mostly up to 57.6 µM
The source made the active and inactive calls. The call rests on the fitted dose curve.
Test readout: outcome

These solved cases illustrate the format of a correct answer.
CCCCCNCCCCC
inactive
CCC(=O)O
inactive
C=Cc1cccc(C)c1
inactive
CC(=O)C1=C(C)[C@@H]2C[C@@]3(C1)[C@H](C)CC[C@H]3C2(C)C
inactive
CC(C)(C#N)c1cc(Cn2cncn2)cc(C(C)(C)C#N)c1
inactive
CCCCC/C=C\C/C=C\CCCCCCCC(=O)OC
inactive
Clc1ccccn1
inactive
O=c1cc[nH]c(=S)[nH]1
inactive
CC(=O)OCCC(C)C
inactive
CCCC(O)C(CC)CO (stereo unspecified)
inactive

Would you mind telling me what outcome value was observed for Oc1ccc2ccccc2c1N=Nc1ccccc1 ? inactive

Would you mind telling me what outcome value was observed for O=Nc1ccc(O)cc1 ? inactive

Would you mind telling me what outcome value was observed for Cc1ccc(C(C)C)cc1 ? inactive

Would you mind telling me what outcome value was observed for Cc1ccc(S(=O)(=O)N=C=O)cc1 ? inactive

Would you mind telling me what outcome value was observed for OCCOCCOCCOCCO ? inactive

Would you mind telling me what outcome value was observed for CC(C)CCCCCCCOC(=O)CCCCC(=O)OCCCCCCCC(C)C ? inactive

----------
Protocol text: p53 small molecule agonists, cell-based qHTS assay with human liver microsomes: qHTS cell viability counter screen (AID 1963579); also: nearly all actives have a fitted effect of over 45% in size
Measurement conditions: p53RE-bla HCT-116 viability, ATP luminescence, 16 h, HLM; series mostly up to 66 µM
Inconclusive results are not listed. Active and inactive are the calls of the source. Calls follow the shape of the full dose curve. Peptide text beside a SMILES is read from it.
Reply using exactly one outcome from 1 = active, 0 = inactive

State the result this test recorded for NC(N)=NC(N)=NCCc1ccccc1 . 0

State the result this test recorded for C[C@]12C=CC(=O)C=C1CC[C@H]1[C@@H]3C[C@@H](O)[C@](O)(C(=O)CO)[C@@]3(C)C[C@H](O)[C@@]12F . 0

State the result this test recorded for CCOC(=O)C1OC1c1ccccc1 (stereo not given) . 0

State the result this test recorded for CCCCCCCCCCCCCC[N+](C)(C)C . 0

State the result this test recorded for CCCCCCCCC/C=C/CC1CC(=O)OC1=O (stereo not given) . 0

State the result this test recorded for Cc1cn([C@H]2C[C@H](N=[N+]=[N-])[C@@H](CO)O2)c(=O)[nH]c1=O . 0

State the result this test recorded for CC1(C)NC(=O)N(c2ccc([N+](=O)[O-])c(C(F)(F)F)c2)C1=O . 0

State the result this test recorded for CC[Si](OC(C)=O)(OC(C)=O)OC(C)=O . 0

State the result this test recorded for CCCCCCCCCCCC[N+](C)(C)C . 0

State the result this test recorded for CCc1ccccc1CC . 0

State the result this test recorded for N#Cc1ccccc1 . 0

State the result this test recorded for Cc1cc(=O)[nH]c(C(C)C)n1 . 0

State the result this test recorded for CCCCCCCCCCCCOC(=O)c1cc(O)c(O)c(O)c1 . 1

State the result this test recorded for CC(=O)O[C@]1(C(C)=O)CC[C@H]2[C@@H]3C=C(Cl)C4=CC(=O)CC[C@]4(C)[C@H]3CC[C@@]21C . 0

State the result this test recorded for CC1(C)[C@@H]2CC[C@@]1(C)C(=O)C2 . 0

State the result this test recorded for O=c1ccc2ccccc2o1 . 0

State the result this test recorded for Brc1ccc(Br)c(Br)c1 . 0

State the result this test recorded for CCCN(CCC)S(=O)(=O)c1ccc(C(=O)O)cc1 . 0

State the result this test recorded for CC(CCC(=O)O)(c1ccc(O)cc1)c1ccc(O)cc1 . 0

State the result this test recorded for C=CC(=O)OCCC(=O)O . 0

State the result this test recorded for CC(=O)OCC(COC(C)=O)OC(C)=O . 0

State the result this test recorded for CCN(CCN)c1cccc(C)c1 . 0

State the result this test recorded for C[C@]12CC[C@@H]3c4ccc(O)cc4CC[C@H]3[C@@H]1CC[C@@H]2O . 0

State the result this test recorded for CCOC(=O)C(C#N)=C(c1ccccc1)c1ccccc1 . 0

State the result this test recorded for O=C(c1ccc(O)cc1)c1ccc(O)cc1O . 0

State the result this test recorded for NCCS(=O)(=O)O . 0

State the result this test recorded for C#CCN(C)Cc1ccccc1 . 0

State the result this test recorded for O=C1OC2(c3ccccc31)c1cc(I)c(O)c(I)c1Oc1c2cc(I)c(O)c1I . 0

State the result this test recorded for NC1CCCCC1 . 0

State the result this test recorded for C=C(C)C(=O)OCCCCCCCCCCCC . 0

State the result this test recorded for COC(=O)[C@H](Cc1ccccc1)NC(=O)[C@@H](N)CC(=O)O (H-Asp-Phe-OMe) . 0

State the result this test recorded for CC(O)C(=O)O (stereo not given) . 0

State the result this test recorded for Cc1c(OCC(F)(F)F)ccnc1CS(=O)c1nc2ccccc2[nH]1 (stereo not given) . 0

State the result this test recorded for CC(=O)CCc1ccccc1 . 0

State the result this test recorded for Cc1ccc(S(=O)(=O)Oc2ccc(N=Nc3ccc(-c4ccc(N=Nc5c(O)ccc6cc(S(=O)(=O)O)cc(S(=O)(=O)O)c56)c(C)c4)cc3C)cc2)cc1 . 0

State the result this test recorded for CCCCCC1C(=O)CCC1CC(=O)OC (stereo not given) . 0

State the result this test recorded for COc1ccccc1O . 0

State the result this test recorded for CN1C(C(=O)Nc2ccccn2)=C(O)c2ccccc2S1(=O)=O . 0

State the result this test recorded for O=S(=O)(O)c1ccc2cc(O)ccc2c1 . 0

State the result this test recorded for CNC[C@H](O)[C@@H](O)[C@H](O)[C@H](O)CO . 0

State the result this test recorded for CCOC(=O)/C=C\C(=O)OCC . 0

State the result this test recorded for CCCCCCCC(=O)OCC(COC(=O)CCCCCCC)OC(=O)CCCCCCC . 0

State the result this test recorded for C/C=C/c1ccc(OC)cc1 . 0

State the result this test recorded for Cc1cccc(C)c1 . 0

State the result this test recorded for CCCCCCCCCC . 0

State the result this test recorded for CNC(=O)Oc1ccc2c(c1)[C@]1(C)CCN(C)[C@@H]1N2C . 0

State the result this test recorded for OC1C(O)C(O)C(O)C(O)C1O (stereo not given) . 0

State the result this test recorded for Cc1ccc(Cl)cc1 . 0

State the result this test recorded for Clc1ccc(Sc2cc(Cl)c(Cl)cc2Cl)cc1 . 0

State the result this test recorded for CN(C)CCN(Cc1cccs1)c1ccccn1 . 0

State the result this test recorded for Cc1cc(=O)[nH]c(=S)[nH]1 . 0

State the result this test recorded for Cc1cc(C)c(C)cc1C . 0

State the result this test recorded for CCC(C)C=O (stereo not given) . 0

State the result this test recorded for CC(C)OP(=O)(CP(=O)(OC(C)C)OC(C)C)OC(C)C . 0

State the result this test recorded for CC(=O)Nc1ccc(C(=O)CCl)cc1 . 0
